Would you kindly list pIC50 for each of these compounds?
assayed-system: SARS-CoV-2 RdRp complex (nsp12-nsp7-nsp8) (Severe acute respiratory syndrome coronavirus 2)
method-summary: biochemical
One number for each entry, as −log10 of the molar value.

Worked cases, answers included:
{"compound": "O=C(Nc1cc(C(=O)Nc2ccc(S(=O)(=O)O)cc2S(=O)(=O)O)cc(C(=O)Nc2ccc(S(=O)(=O)O)cc2S(=O)(=O)O)c1)Nc1cc(C(=O)Nc2ccc(S(=O)(=O)O)cc2S(=O)(=O)O)cc(C(=O)Nc2ccc(S(=O)(=O)O)cc2S(=O)(=O)O)c1 [NF449]", "result-type": "pIC50", "measured": 7.30}
{"compound": "O=C(Nc1cccc(C(=O)Nc2cc(C(=O)Nc3ccc(S(=O)(=O)O)c4cc(S(=O)(=O)O)cc(S(=O)(=O)O)c34)ccc2F)c1)Nc1cccc(C(=O)Nc2cc(C(=O)Nc3ccc(S(=O)(=O)O)c4cc(S(=O)(=O)O)cc(S(=O)(=O)O)c34)ccc2F)c1 [NF157]", "result-type": "pIC50", "measured": 7.30}
{"compound": "O=C(Nc1cc(C(=O)Nc2ccc(S(=O)(=O)O)cc2)cc(C(=O)Nc2ccc(S(=O)(=O)O)cc2)c1)Nc1cc(C(=O)Nc2ccc(S(=O)(=O)O)cc2)cc(C(=O)Nc2ccc(S(=O)(=O)O)cc2)c1 [NF110]", "result-type": "pIC50", "measured": 6.24}

Attention now turns to another entry.
Request the reported pIC50 associated with O=C(Nc1ccc(C(=O)Nc2ccc(C(=O)Nc3ccc(S(=O)(=O)O)c4cc(S(=O)(=O)O)cc(S(=O)(=O)O)c34)cc2)cc1)Nc1ccc(C(=O)Nc2ccc(C(=O)Nc3ccc(S(=O)(=O)O)c4cc(S(=O)(=O)O)cc(S(=O)(=O)O)c34)cc2)cc1 [NF279]
7.30
